The values you see were collected from ChEMBL document CHEMBL2074160.

- System Tested: Solute carrier organic anion transporter family member 1A1 (Rattus norvegicus)
- Sequence (P46720 whole entry): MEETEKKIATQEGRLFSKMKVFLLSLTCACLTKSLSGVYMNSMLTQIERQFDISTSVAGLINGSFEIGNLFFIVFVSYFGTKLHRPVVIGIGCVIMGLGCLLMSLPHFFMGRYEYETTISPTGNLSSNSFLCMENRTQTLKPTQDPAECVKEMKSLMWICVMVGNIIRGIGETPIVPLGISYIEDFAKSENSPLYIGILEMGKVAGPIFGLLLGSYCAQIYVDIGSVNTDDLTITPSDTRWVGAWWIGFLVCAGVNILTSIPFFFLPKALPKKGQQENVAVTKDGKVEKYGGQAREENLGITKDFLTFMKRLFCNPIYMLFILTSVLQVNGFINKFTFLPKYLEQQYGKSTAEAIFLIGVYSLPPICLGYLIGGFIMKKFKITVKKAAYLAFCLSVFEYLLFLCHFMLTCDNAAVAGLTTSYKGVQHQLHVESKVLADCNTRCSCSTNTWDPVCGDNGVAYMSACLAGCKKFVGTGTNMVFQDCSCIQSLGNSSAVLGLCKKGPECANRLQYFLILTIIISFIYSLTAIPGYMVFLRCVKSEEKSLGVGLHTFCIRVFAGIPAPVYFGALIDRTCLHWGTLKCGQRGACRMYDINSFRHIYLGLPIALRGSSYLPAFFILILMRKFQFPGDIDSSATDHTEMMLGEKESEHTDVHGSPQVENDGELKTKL
- Test Protocol: TP_TRANSPORTER: inhibition of Ouabain uptake (Ouabain: 100 uM, Cortisol: 100 uM) in Xenopus laevis oocytes
- Format: functional, cell-based, Oocyte
- Design: scale not given: the % may be the effect or the level left
- Test Settings: probe Ouabain (100 uM), read-out: Activity
Experimental Readout: activity at 100 µM (%)

C[C@]12CCC(=O)C=C1CC[C@@H]1[C@@H]2[C@@H](O)C[C@@]2(C)[C@H]1CC[C@]2(O)C(=O)CO [HYDROCORTISONE] : 19

====

- System Tested: Solute carrier organic anion transporter family member 1A1 (Rattus norvegicus, UniProt P46720)
- Test Protocol: TP_TRANSPORTER: inhibition of Ouabain uptake (Ouabain: 100 uM, Testosterone: 100 uM) in Xenopus laevis oocytes
- Format: functional, cell-based, Oocyte
- Set-up: scale not given: the % may be the effect or the level left
- Test Settings: probe Ouabain (100 uM), read-out: Activity
Experimental Readout: activity at 100 µM (%)

C[C@]12CC[C@H]3[C@@H](CCC4=CC(=O)CC[C@@]43C)[C@@H]1CC[C@@H]2O : 16

====

- System Tested: Solute carrier organic anion transporter family member 1A1 (Rattus norvegicus, UniProt P46720)
- Sequence (P46720 whole entry): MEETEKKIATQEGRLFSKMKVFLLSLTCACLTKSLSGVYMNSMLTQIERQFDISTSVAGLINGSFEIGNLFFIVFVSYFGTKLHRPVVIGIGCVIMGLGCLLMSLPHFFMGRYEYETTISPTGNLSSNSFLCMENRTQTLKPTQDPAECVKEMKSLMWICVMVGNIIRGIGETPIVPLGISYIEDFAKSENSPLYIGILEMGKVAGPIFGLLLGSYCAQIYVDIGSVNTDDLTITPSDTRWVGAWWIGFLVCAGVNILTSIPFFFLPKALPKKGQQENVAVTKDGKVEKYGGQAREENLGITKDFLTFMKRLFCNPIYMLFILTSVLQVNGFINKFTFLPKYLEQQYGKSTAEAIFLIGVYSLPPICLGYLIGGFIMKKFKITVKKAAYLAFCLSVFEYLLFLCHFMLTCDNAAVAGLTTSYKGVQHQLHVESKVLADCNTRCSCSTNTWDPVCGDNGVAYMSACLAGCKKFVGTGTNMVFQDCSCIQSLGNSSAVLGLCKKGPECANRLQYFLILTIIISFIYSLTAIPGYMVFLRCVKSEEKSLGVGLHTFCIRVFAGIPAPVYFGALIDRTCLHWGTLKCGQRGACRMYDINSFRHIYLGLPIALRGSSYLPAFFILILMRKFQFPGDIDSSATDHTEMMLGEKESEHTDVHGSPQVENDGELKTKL
- Test Protocol: TP_TRANSPORTER: inhibition of Ouabain uptake (Ouabain: 100 uM, Digoxigenin: 100 uM) in Xenopus laevis oocytes
- Assay type: functional, cell-based, Oocyte
- Design: scale not given: the % may be the effect or the level left
- Test Settings: probe Ouabain (100 uM), read-out: Activity
Experimental Readout: activity at 100 µM (%)

C[C@]12CC[C@H](O)C[C@H]1CC[C@@H]1[C@@H]2C[C@@H](O)[C@]2(C)[C@@H](C3=CC(=O)OC3)CC[C@]12O : 19
